- Tested on: CTSL
- Assay type: cell-based, human
- CONDITION PARAMETERS: ARPE-19/HPV-16 cells, 10 μM drug, 24 hours
Structures can show the parent of a compound that is named as a salt.
READOUT KIND: log2(treated) CTSL (log2)
Unit log2 implied. Number only.

I am curious: what log2(treated) CTSL value has been reported for CN1[C@@H]2CC[C@H]1C[C@@H](OC(=O)C(CO)c1ccccc1)C2 (stereo partly drawn) [Atropine Sulfate] ?
9.63

What value of log2(treated) CTSL has been recorded for this entry: NCC(CC(=O)O)c1ccc(Cl)cc1 (stereo not drawn) [Baclofen]
9.58

Returns the measured log2(treated) CTSL for the input compound. Input: O=C1NC(=O)C(c2ccccc2)(c2ccccc2)N1 [Phenytoin]
9.56

May I ask what log2(treated) CTSL has been recorded for CN(C)CCC(c1ccc(Br)cc1)c1ccccn1 (stereo not drawn) [Brompheniramine Maleate] ?
9.57

Item Cc1ccc(/C(=C\CN2CCCC2)c2ccccn2)cc1 [Triprolidine Hydrochloride] has what recorded log2(treated) CTSL?
9.54

Which log2(treated) CTSL is listed for NC12CC3CC(CC(C3)C1)C2 [Amantadine Hydrochloride] ?
9.62
